Data origin, for the record: patent US20250282881A1

target-or-test-system: T1, recombinant human OX40/His fusion protein (Novoprotein, CB17) (human, UniProt P43489 29-216)
T1 construct: Bought protein
T1 sequence: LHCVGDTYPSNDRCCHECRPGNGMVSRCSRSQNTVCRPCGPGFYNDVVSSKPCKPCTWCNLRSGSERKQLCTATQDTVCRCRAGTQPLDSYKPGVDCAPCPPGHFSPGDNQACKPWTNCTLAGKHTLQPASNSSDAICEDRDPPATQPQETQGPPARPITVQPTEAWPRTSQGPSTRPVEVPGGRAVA
assay-notes: BLI (Octet RED96), antibody on AHC sensor, OX40/His as analyte, test group 2
attribute-measured: Normalized Index (off-rate ratio to EM1007-mAb044c) (%)
Write it as a number; the unit % goes unstated.

| binder | recorded-measurement |
| --- | --- |
| HuEM1007-044-7 (antibody, human IgG1, kappa, L234A L235A, V domains shown, Humanized anti-OX40, human IgG1 LALA / kappa) VH: EVQLVQSGAEVKKPGSSVKVSCKASGHTFSSSWMNWVRQAPGQGLEWIGRIYPGDEITNYNGKFKDRVTLTADKSTSTAYMELSSLRSEDTAVYYCARDLLMPYWGQGTLVTVSS VL: DIVMTQTPLSLPVTPGEPASISCRSSKSLLYSNGITYLYWYLQKPGQSPQLLIYQMSNLAPGVPDRFSSSGSGTDFTLKISRVEAEDVGVYYCAQNLELPFTFGQGTKLEIKR | 343 |

Q: What value of Normalized Index (off-rate ratio to EM1007-mAb044c) has been recorded for this entry: EM1007-mAb044c-9 (antibody, human IgG1, kappa, L234A L235A, V domains shown) VH: QVQLQQSGPELVKPGASVTISCKASGHAFSSSWMNWVKQRPGKGLEWIGRIYPGDEITNYNAKFKDKATLTADKSSSTAYMQLSSLTFEDSAVYFCARDLLMPYWGQGTLVTVSA VL: DIVMTQTAFSNPVTLGTSASISCRSSKSLLYSNGITYLYWYLQKPGQSPHLLIYQMSNLAPGVPDRFSSSGSGTDFTLRISRVEAEDVGIYYCAQNLELPFTFGSGTKLEIKR
Ans: 97
